// provenance: ChEMBL document CHEMBL3112572

tgt: Sodium channel protein type 3 subunit alpha (Homo sapiens)
protocol-text: Modulation of human Nav1.3 in open-inactivated state assessed as inhibition of inward current after 4 mins by whole-cell electrophysiology
# pIC50 values compiled below
// pIC50: -log10(molar conc.)

Task item: Can you look up pIC50 on Sodium channel protein type 3 subunit alpha (Homo sapiens) for CC(C)(C)OC(=O)n1cc(-c2cccc(NC(=O)c3cc[nH]c3)c2)nc1N ?
Reply: 4.64

Task item: Short answer please: pIC50, Sodium channel protein type 3 subunit alpha (Homo sapiens), entry Nc1nc(-c2cccc(NC(=O)c3c[nH]c4ccccc34)c2)c[nH]1
Reply: 4.92

Task item: Form entry - test system: Sodium channel protein type 3 subunit alpha (Homo sapiens); read-out: pIC50; molecule: Nc1nc(-c2cccc(NC(=O)c3cc[nH]c3)c2)c[nH]1
Reply: 4.92

====

tgt: Sodium channel protein type 3 subunit alpha (Homo sapiens, UniProt Q9NY46)
protocol-text: Modulation of human Nav1.3 in open-inactivated state assessed as inhibition of inward current after 4 mins by whole-cell electrophysiology
reported-metric: pIC50
Scale explanation: pIC50 corresponds to minus log10 of a concentration expressed in moles per litre.

Task item: Given the molecule CC(C)(C)OC(=O)n1cc(-c2cccc(NC(=O)c3c[nH]c4ccccc34)c2)nc1N , what is its reported pIC50?
Reply: 4.57

Task item: What value of pIC50 has been reported for the following molecule? Nc1nc(-c2ccc(NC(=O)[C@@H]3CCCN3)cc2)c[nH]1
Reply: 4.89

Task item: So what does the record say about pIC50 for CC(C)(C)OC(=O)n1cc(-c2cccc(NC(=O)c3cc4ccccc4[nH]3)c2)nc1N ?
Reply: 4.59

Task item: Fill in the blank: the reported pIC50 of CC(C)(C)OC(=O)n1cc(-c2ccc(NC(=O)c3cc4ccccc4[nH]3)cc2)nc1N is ____.
Reply: 4.66

Task item: Looking for the measured pIC50 of CC(C)(C)OC(=O)n1cc(-c2ccc(NC(=O)[C@@H]3CCCN3)cc2)nc1N , can you help?
Reply: 4.60

====

tgt: Sodium channel protein type 4 subunit alpha (Homo sapiens)
Sequence (P35499 whole entry): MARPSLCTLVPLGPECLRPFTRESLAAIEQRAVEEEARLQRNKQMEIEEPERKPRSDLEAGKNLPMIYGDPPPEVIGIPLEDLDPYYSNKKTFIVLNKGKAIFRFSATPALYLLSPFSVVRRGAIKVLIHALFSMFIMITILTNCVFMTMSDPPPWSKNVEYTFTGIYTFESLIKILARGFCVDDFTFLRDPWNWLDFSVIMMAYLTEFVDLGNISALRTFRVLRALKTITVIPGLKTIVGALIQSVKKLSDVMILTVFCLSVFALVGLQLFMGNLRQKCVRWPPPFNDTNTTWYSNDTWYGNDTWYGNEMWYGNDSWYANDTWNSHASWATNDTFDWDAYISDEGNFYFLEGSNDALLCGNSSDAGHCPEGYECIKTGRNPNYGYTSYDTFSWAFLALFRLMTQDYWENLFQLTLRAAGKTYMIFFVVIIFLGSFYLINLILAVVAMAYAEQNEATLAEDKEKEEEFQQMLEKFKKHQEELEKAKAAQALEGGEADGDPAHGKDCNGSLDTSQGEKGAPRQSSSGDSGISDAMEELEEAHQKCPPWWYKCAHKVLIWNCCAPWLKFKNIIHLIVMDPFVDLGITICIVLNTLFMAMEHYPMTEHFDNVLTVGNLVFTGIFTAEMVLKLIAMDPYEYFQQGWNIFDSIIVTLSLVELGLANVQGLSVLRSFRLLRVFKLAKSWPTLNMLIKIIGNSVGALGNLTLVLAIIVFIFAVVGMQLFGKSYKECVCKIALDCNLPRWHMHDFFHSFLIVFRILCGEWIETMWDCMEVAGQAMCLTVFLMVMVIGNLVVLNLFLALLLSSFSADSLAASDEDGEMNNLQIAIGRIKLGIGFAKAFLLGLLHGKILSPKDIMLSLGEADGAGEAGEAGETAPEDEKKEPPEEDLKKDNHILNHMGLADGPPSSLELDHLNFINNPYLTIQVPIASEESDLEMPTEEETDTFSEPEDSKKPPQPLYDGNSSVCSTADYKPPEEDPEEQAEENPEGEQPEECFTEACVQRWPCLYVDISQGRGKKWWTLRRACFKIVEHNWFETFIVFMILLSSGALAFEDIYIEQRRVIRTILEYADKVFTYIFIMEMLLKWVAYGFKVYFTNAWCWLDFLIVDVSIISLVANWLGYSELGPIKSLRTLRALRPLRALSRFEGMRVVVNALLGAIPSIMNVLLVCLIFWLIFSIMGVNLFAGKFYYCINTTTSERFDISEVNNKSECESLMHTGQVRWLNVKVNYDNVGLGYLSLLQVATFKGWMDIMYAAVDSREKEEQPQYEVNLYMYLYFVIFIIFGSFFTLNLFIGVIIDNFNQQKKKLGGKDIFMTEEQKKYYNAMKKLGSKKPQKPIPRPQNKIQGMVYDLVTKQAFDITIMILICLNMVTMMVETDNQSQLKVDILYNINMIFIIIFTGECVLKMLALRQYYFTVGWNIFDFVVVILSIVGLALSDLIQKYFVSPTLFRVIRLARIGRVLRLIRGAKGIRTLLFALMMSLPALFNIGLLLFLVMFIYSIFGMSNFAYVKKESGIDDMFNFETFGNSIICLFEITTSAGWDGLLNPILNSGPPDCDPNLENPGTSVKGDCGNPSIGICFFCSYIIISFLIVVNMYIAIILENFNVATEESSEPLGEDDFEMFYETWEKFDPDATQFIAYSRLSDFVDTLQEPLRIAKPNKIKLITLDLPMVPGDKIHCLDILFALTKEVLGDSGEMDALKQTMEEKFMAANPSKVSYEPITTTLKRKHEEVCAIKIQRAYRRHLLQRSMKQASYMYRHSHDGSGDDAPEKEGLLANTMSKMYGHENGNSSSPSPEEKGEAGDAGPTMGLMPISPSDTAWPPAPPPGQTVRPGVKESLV
protocol-text: Modulation of human Nav1.4 in open-inactivated state assessed as inhibition of inward current after 4 mins by whole-cell electrophysiology
pIC50: −log10 of the molar value.
reported-metric: pIC50

Task item: What measured pIC50 is associated with CC(C)(C)OC(=O)n1cc(-c2cccc(NC(=O)c3cc4ccccc4[nH]3)c2)nc1N on Sodium channel protein type 4 subunit alpha (Homo sapiens)?
Reply: < 4.52

Task item: Lab note: need pIC50 with Sodium channel protein type 4 subunit alpha (Homo sapiens) for entry CC(C)(C)OC(=O)n1cc(-c2ccc(NC(=O)[C@H]3CCCN3)cc2)nc1N , please look it up.
Reply: < 4.52

Task item: Lab request: please report pIC50 under test system Sodium channel protein type 4 subunit alpha (Homo sapiens) for Nc1nc(-c2ccc(NC(=O)c3cc4ccccc4[nH]3)cc2)c[nH]1
Reply: < 4.52

Task item: What pIC50 appears in the records for this compound with Sodium channel protein type 4 subunit alpha (Homo sapiens)? CC(C)(C)OC(=O)n1cc(-c2ccc(NC(=O)c3ccc[nH]3)cc2)nc1N
Reply: < 4.52

====

Catalogue of IC50 readings, one per entry.
tgt: Sodium channel protein type 9 subunit alpha (Homo sapiens, UniProt Q15858)
Sequence (Q15858 whole entry): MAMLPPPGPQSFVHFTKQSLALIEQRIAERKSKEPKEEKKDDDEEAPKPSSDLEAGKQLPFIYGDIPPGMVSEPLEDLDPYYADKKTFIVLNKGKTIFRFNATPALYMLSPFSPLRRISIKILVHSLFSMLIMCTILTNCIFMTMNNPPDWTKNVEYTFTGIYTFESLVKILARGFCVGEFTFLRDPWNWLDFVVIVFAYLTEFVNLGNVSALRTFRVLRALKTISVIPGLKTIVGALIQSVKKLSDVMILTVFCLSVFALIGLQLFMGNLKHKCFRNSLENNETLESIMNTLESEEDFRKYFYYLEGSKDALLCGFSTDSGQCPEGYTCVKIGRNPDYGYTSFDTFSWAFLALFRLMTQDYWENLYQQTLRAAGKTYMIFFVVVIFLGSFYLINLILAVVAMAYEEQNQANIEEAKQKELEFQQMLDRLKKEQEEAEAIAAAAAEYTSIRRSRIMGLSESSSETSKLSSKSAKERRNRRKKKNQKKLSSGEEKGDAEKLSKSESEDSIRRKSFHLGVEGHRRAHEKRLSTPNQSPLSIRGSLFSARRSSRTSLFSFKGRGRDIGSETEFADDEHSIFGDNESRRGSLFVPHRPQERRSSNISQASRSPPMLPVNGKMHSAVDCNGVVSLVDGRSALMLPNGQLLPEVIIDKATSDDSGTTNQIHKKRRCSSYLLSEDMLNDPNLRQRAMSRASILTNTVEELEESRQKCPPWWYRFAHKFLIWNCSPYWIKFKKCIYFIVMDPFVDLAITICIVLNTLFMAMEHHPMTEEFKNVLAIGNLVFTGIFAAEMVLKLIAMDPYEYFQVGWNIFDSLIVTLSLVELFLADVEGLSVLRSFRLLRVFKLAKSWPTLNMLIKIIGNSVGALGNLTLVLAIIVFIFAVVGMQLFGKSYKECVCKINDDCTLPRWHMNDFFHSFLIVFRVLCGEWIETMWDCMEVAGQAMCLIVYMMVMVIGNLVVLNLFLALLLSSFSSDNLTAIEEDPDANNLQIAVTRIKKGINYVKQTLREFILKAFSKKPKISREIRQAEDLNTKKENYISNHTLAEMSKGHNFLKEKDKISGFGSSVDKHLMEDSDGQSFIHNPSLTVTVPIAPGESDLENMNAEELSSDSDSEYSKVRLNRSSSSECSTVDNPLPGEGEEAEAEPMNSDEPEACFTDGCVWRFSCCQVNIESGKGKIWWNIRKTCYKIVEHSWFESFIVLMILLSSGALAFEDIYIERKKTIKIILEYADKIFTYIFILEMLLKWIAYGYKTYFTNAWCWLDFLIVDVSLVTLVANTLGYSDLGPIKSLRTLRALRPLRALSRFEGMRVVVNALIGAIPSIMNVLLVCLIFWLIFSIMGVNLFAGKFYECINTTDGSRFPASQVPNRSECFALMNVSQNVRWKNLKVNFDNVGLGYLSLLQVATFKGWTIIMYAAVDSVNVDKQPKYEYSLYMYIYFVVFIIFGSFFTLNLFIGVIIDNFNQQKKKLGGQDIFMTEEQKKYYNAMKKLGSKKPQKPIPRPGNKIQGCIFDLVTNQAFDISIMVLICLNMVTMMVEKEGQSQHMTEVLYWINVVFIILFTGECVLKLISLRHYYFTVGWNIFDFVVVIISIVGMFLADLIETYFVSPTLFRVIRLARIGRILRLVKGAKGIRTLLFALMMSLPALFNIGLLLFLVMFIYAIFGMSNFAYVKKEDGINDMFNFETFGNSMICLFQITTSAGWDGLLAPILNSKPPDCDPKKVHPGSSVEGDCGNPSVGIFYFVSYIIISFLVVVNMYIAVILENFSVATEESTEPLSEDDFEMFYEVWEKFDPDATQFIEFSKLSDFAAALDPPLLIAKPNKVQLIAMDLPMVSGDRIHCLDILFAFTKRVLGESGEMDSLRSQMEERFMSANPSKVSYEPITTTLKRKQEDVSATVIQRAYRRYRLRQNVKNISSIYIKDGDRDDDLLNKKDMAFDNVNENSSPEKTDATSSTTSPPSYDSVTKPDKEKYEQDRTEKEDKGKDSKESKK
protocol-text: Modulation of human Nav1.7 in open-inactivated state assessed as inhibition of inward current after 4 mins by whole-cell electrophysiology

Worked cases, answers included:
| smiles-record | IC50 |
| --- | --- |
| Nc1nc(-c2ccc(NC(=O)c3cc4ccccc4[nH]3)cc2)c[nH]1 | > 30 µM |
| Nc1nc(-c2cccc(NC(=O)c3cc[nH]c3)c2)c[nH]1 | > 30 µM |
| Nc1nc(-c2ccc(NC(=O)c3ccc[nH]3)cc2)c[nH]1 | 27 µM |
| CNc1nc(-c2cccc(NC(=O)c3ccco3)c2)cn1C(=O)OC(C)(C)C | 26 µM |
| CC(C)(C)OC(=O)n1cc(-c2cccc(NC(=O)c3cc4ccccc4[nH]3)c2)nc1N | > 30 µM |
| CC(C)(C)OC(=O)n1cc(-c2cccc(NC(=O)c3ccc[nH]3)c2)nc1N | > 30 µM |

Task item: Entry CC(C)(C)OC(=O)n1cc(-c2cccc(NC(=O)c3cc[nH]c3)c2)nc1N has what IC50?
Reply: > 30 µM

Task item: Could you share which IC50 value was measured for CC(C)(C)OC(=O)n1cc(-c2ccc(NC(=O)c3cc4ccccc4[nH]3)cc2)nc1N ?
Reply: > 30 µM

Task item: Requested field: IC50. Item: CNc1nc(-c2cccc(NC(=O)c3cc4ccccc4[nH]3)c2)cn1C(=O)OC(C)(C)C
Reply: > 30 µM

Task item: Please look up its IC50: CC(C)(C)OC(=O)n1cc(-c2ccc(NC(=O)c3ccco3)cc2)nc1N
Reply: 22 µM

Task item: So what's the measured IC50 for this one? CC(C)(C)OC(=O)n1cc(-c2ccc(NC(=O)[C@@H]3CCCN3)cc2)nc1N
Reply: 19 µM

Task item: Fill in: IC50 of CC(C)(C)OC(=O)n1cc(-c2ccc(NC(=O)c3ccc[nH]3)cc2)nc1N is ___
Reply: > 30 µM

Task item: Recorded IC50 for Nc1nc(-c2cccc(NC(=O)c3c[nH]c4ccccc34)c2)c[nH]1 , please?
Reply: 26 µM

Task item: Give the measured IC50 of CC(C)(C)OC(=O)n1cc(-c2cccc(NC(=O)c3c[nH]c4ccccc34)c2)nc1N .
Reply: > 30 µM
